The reported numbers originate from patent US8017602B2.

molecular target: Adrenergic β2 (Homo sapiens); construct: Adherent H292 cells were removed from tissue culture flasks; endogenous in cells; host or cells: H292 cells; experiment: Adrenergic β2 mediated cAMP production in H292 cells (AlphaScreen cAMP detection); assay type: cell-based; conditions: Intrinsic Activity, fraction relative to the maximum activity determined for formoterol
Sequence (P07550 whole entry): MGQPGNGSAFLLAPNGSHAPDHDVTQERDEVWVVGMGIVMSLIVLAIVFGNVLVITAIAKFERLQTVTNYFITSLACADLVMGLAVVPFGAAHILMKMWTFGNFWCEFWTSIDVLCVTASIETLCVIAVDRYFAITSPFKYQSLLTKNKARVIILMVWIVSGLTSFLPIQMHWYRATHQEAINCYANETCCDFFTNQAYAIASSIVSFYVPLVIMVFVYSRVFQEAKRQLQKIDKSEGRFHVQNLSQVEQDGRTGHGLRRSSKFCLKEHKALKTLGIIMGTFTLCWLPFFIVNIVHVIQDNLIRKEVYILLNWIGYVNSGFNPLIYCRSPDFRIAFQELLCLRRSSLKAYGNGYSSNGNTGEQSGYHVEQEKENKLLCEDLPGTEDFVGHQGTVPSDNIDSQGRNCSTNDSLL
Where a name gives a salt, the structure may show the parent alone.
parameter_measured: β2 Int Act
The answer should be a number; do not append a unit.

# count of solved cases: 5
[
  {
    "molecule": "O=C1COc2c(CCNCCN(C(=O)CCOCCc3cccc(-c4c[nH]nn4)c3)C3CCCCC3)ccc(O)c2N1 [Example 14, Trifluoroacetic Acid Salt]",
    "β2 Int Act": 0.95
  },
  {
    "molecule": "Cn1cc(-c2cccc(CCOCCC(=O)N(CCNCCc3ccc(O)c4c3OCC(=O)N4)C3CCCCC3)c2)cn1",
    "β2 Int Act": 0.96
  },
  {
    "molecule": "Cn1cc(-c2cccc(CCOCCC(=O)N(CCNCCc3ccc(O)c4c3OCC(=O)N4)C3CCCCC3)c2)nn1 [Example 05, Trifluoroacetic Acid Salt]",
    "β2 Int Act": 0.87
  },
  {
    "molecule": "O=C1COc2c(CCNCCN(C(=O)CCOCCc3cccc(-c4cnco4)c3)C3CCCCC3)ccc(O)c2N1 [Example 10, Trifluoroacetic Acid Salt]",
    "β2 Int Act": 0.88
  },
  {
    "molecule": "CC(C)n1cc(-c2cccc(CCOCCC(=O)N(CCNCCc3ccc(O)c4c3OCC(=O)N4)C3CCCCC3)c2)nn1 [Example 12, Trifluoroacetic Acid Salt]",
    "β2 Int Act": 0.91
  }
]

Please turn your attention to the following entry.
Problem: What does the record list as β2 Int Act for Cn1cc(-c2cccc(CCOCCC(=O)N(CCNCCc3ccc(O)c4c3OCC(=O)N4)C3CCCCC3)c2F)cn1 [Example 16, Trifluoroacetic Acid Salt] ?
Solution: 1.00
